TARGET: human Y4 receptor (human, UniProt P50391 1-375)
Sequence (P50391 whole entry): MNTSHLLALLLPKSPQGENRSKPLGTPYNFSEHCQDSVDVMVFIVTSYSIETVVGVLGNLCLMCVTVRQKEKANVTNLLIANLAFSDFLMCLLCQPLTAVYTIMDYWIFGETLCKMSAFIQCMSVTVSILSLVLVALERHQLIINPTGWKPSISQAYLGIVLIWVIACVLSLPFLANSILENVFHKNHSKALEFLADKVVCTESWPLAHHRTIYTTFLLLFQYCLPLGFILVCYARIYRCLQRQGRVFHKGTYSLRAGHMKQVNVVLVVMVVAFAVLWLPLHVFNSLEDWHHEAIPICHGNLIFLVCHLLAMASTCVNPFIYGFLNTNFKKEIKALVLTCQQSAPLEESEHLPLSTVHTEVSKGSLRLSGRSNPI
ASSAY_REMARKS: 125I-PP displacement
So I've got a bunch of binders here, and I need their pIC50 values.
Give bare numbers, as −log10 of the molar value.

Reference set, count: 5
PAPLEPKYPGDDATPQEMARYAAELRRYINKLTRPRY [4058686]; 10.12
PLEPEYPGDNATPEEMAKYAAALRRYINKLTRPRY [4058676]; 10.21
PAPLEPKYPGDDATPEELAHYYSELRRYINKLTRPRY [4058709]; 10.08
AKPLEPEYPGDDATPQEMARYAAELRRYINKLTRPRY [4058685]; 10.05
PLEPEYPGDDATPEEMAKYAAELRRYINKLTRPRY [4058673]; 10.04

Please go through the list and note pIC50 for each binder.
1. PLEPKYPGDDATPEELAHYYSELRRYINKLTRPRY [4058706]
2. PAPLEPHYPGDDATPEEMAKYAAELRRYINKLTRPRY [4058701]
3. PAPLEPKAPGDNATPEQMAKYAAELRRYINKLTRPRY [4058668]
4. PAPLEPKYPGDDATPQQMAKYAAELRRYINKLTRPRY [4058670]

Completion:
1. 10.08
2. 10.00
3. 10.13
4. 10.10
